Biological target: Adenosine receptor A3 (Homo sapiens, UniProt P0DMS8)
Sequence (P0DMS8 whole entry): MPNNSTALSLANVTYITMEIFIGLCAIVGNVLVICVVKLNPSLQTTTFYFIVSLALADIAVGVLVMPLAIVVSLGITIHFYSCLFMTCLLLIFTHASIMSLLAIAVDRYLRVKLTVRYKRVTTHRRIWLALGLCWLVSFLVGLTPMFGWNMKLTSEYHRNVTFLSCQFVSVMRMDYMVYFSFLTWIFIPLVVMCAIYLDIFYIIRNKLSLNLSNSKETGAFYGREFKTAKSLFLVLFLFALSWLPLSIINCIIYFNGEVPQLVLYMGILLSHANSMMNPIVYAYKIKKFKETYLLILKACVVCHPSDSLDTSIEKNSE
Assay: Antagonist activity at human adenosine A3 receptor
measurement_name: Ki (nM)

I = Cn1cc2c(nc(NC(=O)N[n+]3ccccc3)n3nc(-c4ccco4)nc23)n1
II = O=C(Cc1ccccc1)Nc1nc2nn(CCc3ccccc3)cc2c2nc(-c3ccc(Cl)cc3)nn12
For I and II , which recorded Ki is lower? Please identify the chosen entry by its label.
I
(I: 0.01 nM, II: 8.48 nM)

Ref: ChEMBL document CHEMBL1770052
